# reported melting point; entries follow

These solved cases illustrate the format of a correct answer.
{"columns": ["molecule", "melting point"],
 "data": [
  ["CN1CCC(NC(=O)c2cccc3nc(-c4ccccc4)oc23)CC1", "209 to 210 °C"],
  ["CN1C2CCCC1CC(NC(=O)c1cccc3oc(-c4ccc(Cl)cc4)nc13)C2 (centres unmarked)", "185 to 187 °C"],
  ["CN1CCC(NC(=O)c2cc(Cl)cc3oc(-c4ccccc4)nc23)CC1", "170 to 172 °C"],
  ["CN1C2CCCC1CC(NC(=O)c1cccc3oc(-c4ccc(F)cc4)nc13)C2 (centres unmarked)", "197 to 199 °C"],
  ["O=C(NC1CN2CCC1CC2)c1cccc2nc(-c3ccc(F)cc3)oc12 (centres unmarked)", "185 to 187 °C"],
  ["O=C(NC1CN2CCC1CC2)c1cccc2oc(-c3ccccc3)nc12 (centres unmarked)", "77 to 80 °C"],
  ["O=C(NC1CN2CCC1CC2)c1cc(Cl)cc2nc(-c3ccccc3)oc12 (centres unmarked)", "283 to 285 °C"],
  ["Cc1nccn1CCNC(=O)c1cccc2oc(-c3ccccc3)nc12", "125 to 127 °C"]
]}

The reported melting point of the molecule O=C(NC1CN2CCC1CC2)c1cccc2nc(-c3ccccc3)oc12 (centres unmarked) was 179 to 180 °C

Just so you know, measured melting point for O=C(NC1CN2CCC1CC2)c1cccc2oc(-c3ccc(F)cc3)nc12 (centres unmarked) came out at 208 to 209 °C

melting point for CN1C2CCC1CC(NC(=O)c1cccc3nc(-c4ccccc4)oc13)C2 (centres unmarked) is 164 to 166 °C

----------
quantity kind: melting point

Notebook: COc1ccc(-c2nc3c(C(=O)NC4CC5CCCC(C4)N5C)cccc3o2)cc1 (stereo not drawn) , melting point read as 103 to 105 °C

----------
quantity kind: melting point

Known results for compounds:
{"columns": ["compound", "melting point"],
 "data": [
  ["COc1ccc(-c2nc3cccc(C(=O)NC4CN5CCC4CC5)c3o2)cc1 (stereo not shown)", "166 to 167 °C"],
  ["CN1C2CCCC1CC(NC(=O)c1cc(Cl)cc3nc(-c4ccccc4)oc13)C2 (stereo not shown)", "199 to 201 °C"],
  ["O=C(NC1CCNCC1)c1cccc2nc(-c3ccccc3)oc12", "191 to 193 °C"],
  ["O=C(NC1CN2CCC1CC2)c1cc(Cl)cc2oc(-c3ccccc3)nc12 (stereo not shown)", "180 to 183 °C"],
  ["CN1C2CCCC1CC(NC(=O)c1cccc3oc(-c4ccccc4)nc13)C2 (stereo not shown)", "182 to 185 °C"]
]}

Measured melting point of `O=C(NC1CCNCC1)c1cc(Cl)cc2oc(-c3ccccc3)nc12` : 169 to 171 °C

The compound `O=C(NC1CCNCC1)c1cccc2oc(-c3ccccc3)nc12` showed melting point equal to 99 to 102 °C

----------
We begin with a simple list: items and their reported melting point.

// solved cases for melting point follow
{"columns": ["compound", "reported result"],
 "data": [
  ["CN1C2CCCC1CC(NC(=O)c1cccc3nc(-c4ccc(F)cc4)oc13)C2 (centres unmarked)", "229 to 231 °C"],
  ["CN1C2CCCC1CC(NC(=O)c1cccc3nc(-c4ccc(Cl)cc4)oc13)C2 (centres unmarked)", "193 to 196 °C"],
  ["COc1ccc(-c2nc3c(C(=O)NC4CN5CCC4CC5)cccc3o2)cc1 (centres unmarked)", "108 to 109 °C"],
  ["Cc1nccn1CCCNC(=O)c1cccc2oc(-c3ccccc3)nc12", "145 to 148 °C"]
]}

Note: attention shifts to another entry.
The recorded melting point for O=C(NC1CN2CCC1CC2)c1cccc2oc(-c3ccc(Cl)cc3)nc12 (centres unmarked) is 194 to 196 °C
